System: Malme-3M
Assay: NCI tumour cell line growth inhibition, 48 h
Active and inactive are the calls of the source. No stated cut-off is given here; in the data, active = GI50 up to about 1.1 µM and inactive = higher.
Labels: 1 (yes) = active, 0 (no) = inactive

MOLECULE	STUDY_SYSTEM	CLASS_LABEL
CC(C)(C)OC(=O)Cn1ncn(NC(=O)Cc2ccccc2)c1=O	Malme-3M	0 (no)
Cc1cc(C)nc(NC(=S)Nc2ccc(Cl)cc2)c1	Malme-3M	0 (no)
C=C1C(=O)OC2C1C(OC(=O)/C(C)=C/C)CC(O)(CCl)C1C(O)C3OC3(C)C21O (centres undefined)	Malme-3M	1 (yes)
CC(=O)OCC1OC(n2cc([N+](=O)[O-])c(=O)[nH]c2=O)C(OC(C)=O)C(OC(C)=O)C1OC(C)=O (centres undefined)	Malme-3M	0 (no)
COC(=O)c1ccc2c(c1)CC1(C2)Cc2ccc3c(c2C1)CCC3 (centres undefined)	Malme-3M	0 (no)
NC(=O)/C=C/NC(=O)/C=N\O	Malme-3M	0 (no)
O=S(=O)(O)c1cc(/N=[N+](\[O-])c2cc(S(=O)(=O)O)c3ccccc3c2)cc2ccccc12	Malme-3M	0 (no)
C[C@]12CC[C@H]3[C@@H](CC[C@]4(O)C[C@@H](O)CC[C@]34/C=N/O)[C@@]1(O)CC[C@@H]2C1=COC(=O)C1	Malme-3M	1 (yes)
COc1cc([N+](=O)[O-])c(S(=O)(=O)O)cc1-n1nc(-c2ccccc2)n[n+]1-c1cc(S(=O)(=O)[O-])c([N+](=O)[O-])cc1OC	Malme-3M	0 (no)
N=C(N)NS(=O)(=O)c1ccc(NC(=O)c2cccc3c(Nc4ccc(S(N)(=O)=O)cc4)c4ccccc4nc23)cc1	Malme-3M	0 (no)
C[N+](C)(C)C.FC(F)(F)C1(C(F)(F)F)O[SiH-]2(OC(C(F)(F)F)(C(F)(F)F)c3ccccc32)c2ccccc21	Malme-3M	0 (no)
COc1cc(/C=C(\C#N)c2ccccc2)cc(OC)c1	Malme-3M	0 (no)
CSc1ccc(N2C(=O)C3c4[nH]c5ccccc5c4C4CCC(C(C)(C)C)CC4C3C2=O)cc1 (centres undefined)	Malme-3M	0 (no)
O=c1/c(=C/c2ccccc2[N+](=O)[O-])sc2nc3ccccc3n12	Malme-3M	0 (no)
O=C(CC(=O)c1ccccc1)c1ccccc1.O=C(CC(=O)c1ccccc1)c1ccccc1.O=C(CC(=O)c1ccccc1)c1ccccc1.[SiH4]	Malme-3M	0 (no)
COc1ccc(/C=C2\N=C(c3ccccc3)OC2=O)c(OCc2ccccc2)c1	Malme-3M	0 (no)
COC1CC(OC2C(C)OC(OC3C(C)OC(OC4C(O)CC(O[C@H]5CC[C@@]6(C)C(=CC[C@]7(O)[C@@H]6C[C@@H](OC(=O)/C=C/c6ccccc6)[C@@]6(C)[C@]7(O)CC[C@@]6(O)C(C)=O)C5)OC4C)CC3OC)CC2OC)OC(C)C1O (some centres undefined)	Malme-3M	0 (no)
COc1ccc2c(c1)CC[C@@H]1C2CC[C@](C)(C#N)C1CC#N (some centres undefined)	Malme-3M	0 (no)
CCOC(=O)C1=CN(C(=O)c2ccccc2)CCC1Cc1ccccc1 (centres undefined)	Malme-3M	0 (no)
COC(=O)C1Cc2c(OC)ccc(OC)c2C(O)C1C(=O)OC (centres undefined)	Malme-3M	0 (no)
CSc1cccc(NC(=O)OC2CCCCCCCCCCC2)c1	Malme-3M	0 (no)
CCOC(=O)c1cc2c([nH]1)c(O)cc1c2ccn1Cc1ccccc1	Malme-3M	0 (no)
COC(=O)[C@H](Cc1ccccc1)NC(=O)N(CCC#N)CCCCN(CCC#N)C(=O)N[C@@H](Cc1ccccc1)C(=O)OC	Malme-3M	0 (no)
CC(=O)OCC1OC(n2c(=O)n(-c3ccccc3)c(=O)c3cc(Br)cc(Br)c32)C(OC(C)=O)C(OC(C)=O)C1OC(C)=O (centres undefined)	Malme-3M	0 (no)
CCNC(C)Cc1ccccc1 (centres undefined)	Malme-3M	0 (no)
COC1(OC)CC(CO)(CNc2cc(Cl)nc(N)n2)C1	Malme-3M	0 (no)
COc1ccc(-c2cc(-c3ccc(Nc4ccnc5cc(C(F)(F)F)ccc45)cc3)nc(N)c2C#N)c2ccccc12	Malme-3M	0 (no)
CC(=O)c1cnc2oc3ccc(O)cc3c2c1-c1ccccc1	Malme-3M	0 (no)
COc1ccc(N(C)S(=O)(=O)c2ccccc2)cc1	Malme-3M	0 (no)
Cc1ccc2c(c1)C(=O)C1(C2)Cc2cccc(C)c2C1=O (centres undefined)	Malme-3M	0 (no)
COC(=O)C1=C(C)NC(C)=C(C(=O)OC)C1c1cccc(/[N+]([O-])=C/c2ccccc2)c1	Malme-3M	0 (no)
O=C(O)c1ccc(NNC(=O)c2cccc3c(=O)c4ccccc4[nH]c23)cc1	Malme-3M	0 (no)
C=CCCCC1SC2=C(CC)CCCN2C1=O (centres undefined)	Malme-3M	0 (no)
CNC(=O)OC(COC)CN1CCN(c2ccccc2C)CC1 (centres undefined)	Malme-3M	0 (no)
O=C1CCC(=O)C12CCc1ccccc12	Malme-3M	0 (no)
CCC1(C(=O)OC(C)(C)C)OC12C(C)CCCC2C (centres undefined)	Malme-3M	0 (no)
CCCCN(CCCC)CCC(O)c1cc2c(Cl)cc(Cl)cc2c2cc(C(F)(F)F)ccc12 (centres undefined)	Malme-3M	0 (no)
O=[N+]([O-])/C=C/c1c(Cl)cccc1Cl	Malme-3M	0 (no)
NCCCCC(NC(=O)C(N)Cc1ccc(O)cn1)C(=O)O (centres undefined)	Malme-3M	0 (no)

----------
Tested on: KM-20L2
Test: NCI tumour cell line growth inhibition, 48 h
Calls of active or inactive are those of the source. No stated cut-off is given here; in the data, active = GI50 up to about 1.1 µM and inactive = higher. Non-standard residues stand in square brackets, D forms with d. Residues, ends and D or L forms follow the SMILES beside them.
Labels: active, inactive

MOLECULE	STUDY_SYSTEM	CLASS_LABEL
COc1ccc2c(c1)CC[C@@H]1C2CC[C@](C)(C#N)C1CC#N (stereo not given in full)	KM-20L2	inactive
CCNC(C)Cc1ccccc1 (stereo not given)	KM-20L2	inactive
CC1=NOC(=O)C1/N=N/c1ccc(Br)c(C)c1 (stereo not given)	KM-20L2	inactive
CC(=O)OCC1OC(n2c(=O)n(-c3ccccc3)c(=O)c3cc(Br)cc(Br)c32)C(OC(C)=O)C(OC(C)=O)C1OC(C)=O (stereo not given)	KM-20L2	inactive
O=c1/c(=C/c2ccccc2[N+](=O)[O-])sc2nc3ccccc3n12	KM-20L2	inactive
CN(/N=C/c1cccc2cccnc12)c1ccccc1	KM-20L2	inactive
COc1cc(/C=C(\C#N)c2ccccc2)cc(OC)c1	KM-20L2	inactive
CC(=O)OCC1OC(n2cc([N+](=O)[O-])c(=O)[nH]c2=O)C(OC(C)=O)C(OC(C)=O)C1OC(C)=O (stereo not given)	KM-20L2	inactive
COc1cc([C@@H]2c3cc4c(cc3[C@@H](NC(=O)c3ccc(C(C)=O)cc3)C3COC(=O)[C@@H]32)OCO4)cc(OC)c1O (stereo not given in full)	KM-20L2	active
CCOc1ccc(NC(=O)CC2SC(N)=NC2=O)cc1 (stereo not given)	KM-20L2	inactive
CC1=CC(C)(C)N=C2SC(c3ccc(N)cc3)=NN12	KM-20L2	inactive
COc1ccc(-c2oc3cc(O)c(OC)c(O)c3c(=O)c2OC2OC(CO)C(O)C(O)C2O)cc1 (stereo not given)	KM-20L2	inactive
CN1Cc2c(nc(-c3ccccc3)c[n+]2[O-])N(C)C1	KM-20L2	inactive
CC(C)C[C@H](NC(=O)[C@H](CC(C)C)NC(=O)[C@@H](Cc1c[nH]c2ccccc12)NC(=O)[C@H](Cc1ccccc1)NC(=O)[C@@H](Cc1c[nH]c2ccccc12)NC(=O)[C@H](CCC(N)=O)NC(=O)[C@H](CCC(N)=O)NC(=O)[C@H]1CCCN1C(=O)[C@@H](N)CCCCN)C(N)=O (H-K[dP]QQ[dW]F[dW]LL-NH2)	KM-20L2	inactive
CC1=C(C(=O)Nc2cc(F)c(F)cc2F)C(c2ccc([N+](=O)[O-])cc2)C(C(=O)Nc2cc(F)c(F)cc2F)=C(C)N1	KM-20L2	inactive
O=C(CCN(C(=O)O)S(=O)(=O)c1ccc(NC(=O)c2ccccc2)cc1)NC1CCCCC1	KM-20L2	inactive
Cc1c2ccccc2cc2ccc3oc([N+](=O)[O-])cc3c12	KM-20L2	inactive
Cc1ccccc1NC(=O)c1cc(-c2ccc([N+](=O)[O-])cc2)nc(S)n1	KM-20L2	inactive
Cc1ccccc1C1OC(=O)c2ccc3ccccc3c21 (stereo not given)	KM-20L2	inactive
CCCCCCCC(=O)OCC(C[As](=O)(O)O)OC(=O)CCCCCCC (stereo not given)	KM-20L2	inactive
CC1C=CC(O)[C@]2(CO)CC3(CCC12)OCCO3 (stereo not given in full)	KM-20L2	inactive
COC(=O)/C(=N\NC(N)=O)C(C#N)c1ccccc1 (stereo not given)	KM-20L2	inactive
CC(C)(C)C1=CC(=N/N=c2\scc(-c3ccccc3)n2Cc2ccccc2)C=C(C(C)(C)C)C1=O	KM-20L2	inactive
Cc1noc(/N=C2\C=C(Nc3onc(C)c3C)C(=O)c3ccccc32)c1C	KM-20L2	inactive
CC(C)=CCC/C(C)=C/Cc1c(O)c(C)cc2c1[nH]c1cc(O)ccc12	KM-20L2	inactive
C/C(CC(=O)Nc1ccc(NC(=O)/C(C)=N/NS(=O)(=O)c2ccc(C)cc2)cc1)=N\NS(=O)(=O)c1ccc(C)cc1	KM-20L2	inactive
CCc1cc2c(O)c(c1)Cc1cc(CC)cc(c1O)Cc1cc(CC)cc(c1O)Cc1cc(CC)cc(c1O)Cc1cc(CC)cc(c1O)Cc1cc(CC)cc(c1O)Cc1cc(CC)cc(c1O)C2	KM-20L2	inactive
COc1ccc(N2C(=O)[C@@H]3[C@@H]4CC(C)CC[C@@H]4c4c([nH]c5ccccc45)[C@@H]3C2=O)cc1 (stereo not given in full)	KM-20L2	inactive
O=C(/C=C/c1ccc(O)c(O)c1)OC1C[C@@](O)(C(=O)O)C[C@@H](O)[C@H]1OC(=O)/C=C/c1ccc(O)c(O)c1 (stereo not given in full)	KM-20L2	inactive
C[C@H]1CC[P+](C)(c2ccccc2)C1 (stereo not given in full)	KM-20L2	inactive
